Value source: patent US10669283B2

# maps each entry to its pIC50
Test system: PDE4
Assay: PDE4 inhibition, scintillation proximity assay (SPA)
Type: biochemical
Conditions: scintillation proximity assay; class symbols; read-out: PDE4 Inhibitory Activity
pIC50: −log10 of the molar value.

COMPOUND: CCC(O)C(F)(F)Oc1ccc(-c2nccs2)c2oc(N3CC4CC(C3)N4)nc12 (stereo not drawn) [Example 395]
pIC50: > 7.00

COMPOUND: CC(O)C(F)(F)Oc1ccc(-c2nccs2)c2oc(N3CC4CC(C3)N4O)nc12 (single isomer, unassigned) [Example 372]
pIC50: > 7.00

COMPOUND: CC(C)(O)C(F)(F)Oc1ccc(-c2ccc(Cl)cn2)c2oc(N3CC4CC(C3)N4)nc12 [Example 363]
pIC50: > 7.00

COMPOUND: CN(C)C(=O)C(F)(F)Oc1ccc(-c2nccs2)c2oc(N3CC4CC(C3)N4)nc12 [Example 408]
pIC50: > 7.00

COMPOUND: OCC(O)C(F)(F)Oc1ccc(-c2nccs2)c2oc(N3CC4CC(C3)N4)nc12 (stereo not drawn) [Example 370]
pIC50: > 7.00

COMPOUND: c1csc(-c2ccc(N3CCCC3)c3nc(N4CC5CC(C4)N5)oc23)n1 [Example 415]
pIC50: > 7.00

COMPOUND: O=C(c1ccc(-c2nccs2)c2oc(N3CC4CC(C3)N4)nc12)N1CCOCC1 [Example 359]
pIC50: 6.00 to 7.00

COMPOUND: OCc1ccc(Oc2ccc(-c3nccs3)c3oc(N4CC5CC(C4)N5)nc23)nc1 [Example 341]
pIC50: > 7.00

COMPOUND: O=C(N1CC(O)C1)C(F)(F)Oc1ccc(-c2nccs2)c2oc(N3CC4CC(C3)N4)nc12 [Example 412]
pIC50: > 7.00

COMPOUND: FC(F)(Oc1ccc(-c2nccs2)c2oc(N3CC4CC(C3)N4)nc12)c1nc2ccccc2o1 [Example 403]
pIC50: > 7.00

COMPOUND: CC(C)(O)C(F)(F)Oc1ccc(-c2nccs2)c2oc(N3CC4CCC(C3)N4)nc12 [Example 405]
pIC50: > 7.00

COMPOUND: CC(O)c1cc(-c2nccs2)c2oc(N3CC4CCC(C3)N4O)nc2c1OC(F)(F)F (stereo not drawn) [Example 383]
pIC50: < 6.00

COMPOUND: Cn1ccc(-c2ccc(OC(F)(F)C(C)(C)O)c3nc(N4CC5CC(C4)N5)oc23)n1 [Example 394]
pIC50: 6.00 to 7.00

COMPOUND: CS(=O)(=O)c1ccc(-c2nccs2)c2oc(N3CC4CC(C3)N4)nc12 [Example 347]
pIC50: > 7.00

COMPOUND: CC(C)(O)C(F)(F)Oc1ccc(-c2ncccn2)c2oc(N3CC4CCC(C3)N4)nc12 [Example 330]
pIC50: > 7.00

COMPOUND: O=S1(=O)CCN(c2ccc(-c3nccs3)c3oc(N4CC5CC(C4)N5)nc23)CC1 [Example 398]
pIC50: > 7.00

COMPOUND: CC(C)(O)c1cc(-c2nccs2)c2oc(N3CC4CCC(C3)N4O)nc2c1OC(F)(F)F [Example 368]
pIC50: 6.00 to 7.00

COMPOUND: OCC(F)(F)Oc1ccc(-c2nccs2)c2oc(N3CC4CC(C3)N4O)nc12 [Example 374]
pIC50: > 7.00

COMPOUND: CSc1ccc(-c2nccs2)c2oc(N3CC4CC(C3)N4)nc12 [Example 345]
pIC50: > 7.00

COMPOUND: O=C(NCCO)c1ccc(-c2nccs2)c2oc(N3CC4CC(C3)N4)nc12 [Example 355]
pIC50: > 7.00

COMPOUND: O=S(=O)(c1ccc(-c2nccs2)c2oc(N3CC4CC(C3)N4)nc12)C(F)(F)F [Example 334]
pIC50: > 7.00

COMPOUND: CN(C)S(=O)(=O)c1ccc(-c2nccs2)c2oc(N3CC4CC(C3)N4)nc12 [Example 388]
pIC50: > 7.00

COMPOUND: OC1CCN(c2ccc(-c3nccs3)c3oc(N4CC5CC(C4)N5)nc23)CC1 [Example 397]
pIC50: > 7.00

COMPOUND: O=S(=O)(NCCO)c1ccc(-c2nccs2)c2oc(N3CC4CC(C3)N4)nc12 [Example 385]
pIC50: > 7.00

COMPOUND: NC(=O)C(F)(F)Oc1ccc(-c2nccs2)c2oc(N3CC4CC(C3)N4)nc12 [Example 410]
pIC50: > 7.00

COMPOUND: COCCNS(=O)(=O)c1ccc(-c2nccs2)c2oc(N3CC4CC(C3)N4)nc12 [Example 387]
pIC50: > 7.00

COMPOUND: C=CC(F)(F)Oc1ccc(-c2nccs2)c2oc(N3CC4CC(C3)N4)nc12 [Example 351]
pIC50: > 7.00

COMPOUND: c1csc(-c2ccc(OC3COC3)c3nc(N4CC5CC(C4)N5)oc23)n1 [Example 325]
pIC50: > 7.00

COMPOUND: COCC(F)(F)Oc1ccc(-c2nccs2)c2oc(N3CC4CC(C3)N4)nc12 [Example 392]
pIC50: > 7.00

COMPOUND: OCC(F)(F)Oc1ccc(-c2nccs2)c2oc(N3CC4CCC(C3)N4)nc12 [Example 404]
pIC50: > 7.00

COMPOUND: c1ccc(Oc2ccc(-c3nccs3)c3oc(N4CC5CC(C4)N5)nc23)nc1 [Example 337]
pIC50: > 7.00

COMPOUND: CCNC(=O)c1ccc(-c2nccs2)c2oc(N3CC4CC(C3)N4)nc12 [Example 358]
pIC50: > 7.00

COMPOUND: O=C(c1ccc(-c2nccs2)c2oc(N3CC4CC(C3)N4)nc12)N1CCCC1 [Example 360]
pIC50: 6.00 to 7.00

----------
Tested on: PDE4
Assay: PDE4 inhibition, scintillation proximity assay (SPA)
Assay type: biochemical
Settings: scintillation proximity assay; class symbols; read-out: PDE4 Inhibitory Activity
Measured IC50 values are reported for all entries that follow.

COMPOUND: O=C(NCc1ccccc1)c1ccc(-c2nccs2)c2oc(N3CC4CC(C3)N4)nc12
IC50: < 0.1 µM
--
COMPOUND: CC(C)(O)C(F)(F)Oc1ccc(-c2ncns2)c2oc(N3CC4CCC(C3)N4)nc12
IC50: < 0.1 µM
--
COMPOUND: c1csc(-c2ccc(C3CC3)c3nc(N4CC5CC(C4)N5)oc23)n1
IC50: < 0.1 µM
--
COMPOUND: CN(CCO)C(=O)c1ccc(-c2nccs2)c2oc(N3CC4CC(C3)N4)nc12
IC50: 0.1 to 1 µM
--
COMPOUND: CC(C)(O)c1cc(-c2nccs2)c2oc(N3CC4CCC(C3)N4O)nc2c1C(F)(F)F
IC50: > 1 µM
--
COMPOUND: CN(CCO)C(=O)C(F)(F)Oc1ccc(-c2nccs2)c2oc(N3CC4CC(C3)N4)nc12
IC50: < 0.1 µM
--
COMPOUND: O=S(=O)(CCO)c1ccc(-c2nccs2)c2oc(N3CC4CC(C3)N4)nc12
IC50: < 0.1 µM
--
COMPOUND: C[S+]([O-])c1ccc(-c2nccs2)c2oc(N3CC4CC(C3)N4)nc12 (centres unmarked)
IC50: < 0.1 µM

----------
Tested on: PDE4
Assay: PDE4 inhibition, scintillation proximity assay (SPA)
Format: biochemical
Details: scintillation proximity assay; class symbols; read-out: PDE4 Inhibitory Activity
pIC50: −log10 of the molar value.
Listed compounds paired with reported pIC50

COMPOUND: CC(O)c1cc(-c2nccs2)c2oc(N3CC4CCC(C3)N4O)nc2c1C(F)(F)F (stereo not shown)
pIC50: < 6.00
--
COMPOUND: CC(C)(O)C(F)(F)Oc1ccc(-c2ccc(F)cn2)c2oc(N3CC4CC(C3)N4)nc12
pIC50: > 7.00
--
COMPOUND: ON1C2CCC1CN(c1nc3c(OC(F)(F)F)c(Cl)cc(-c4nccs4)c3o1)C2
pIC50: > 7.00
--
COMPOUND: CC(C)(O)C(F)(F)Oc1ccc(-c2ccsn2)c2oc(N3CC4CCC(C3)N4)nc12
pIC50: > 7.00

----------
System: PDE4
Assay: PDE4 inhibition, scintillation proximity assay (SPA)
Type: biochemical
Conditions: scintillation proximity assay; class symbols; read-out: PDE4 Inhibitory Activity
Protocol: The PDE4 inhibitory activity was measured using scintillation proximity assay (SPA) as follows. A sample compound dissolved in dimethyl sulfoxide was diluted 1:10 in reaction buffer solution which contained 50 mM of Tris-HCl with pH 7.4, 8.3 mM of MgCl2, 1.7 mM of EGTA, and 3 mg/mL of bovine serum albumin (BSA). Then, 10 μL of the diluted solution was added in a 96-well assay plate. […] After that, the radioactivity was measured using a liquid scintillation counter for a 96-well plate. […]

COMPOUND: OC(c1ccc(-c2nccs2)c2oc(N3CC4CCC(C3)N4O)nc12)C(F)(F)F (stereo not shown) [Example 379]
IC50: < 100 nM

COMPOUND: OC(c1ccc(-c2nccs2)c2oc(N3CC4CCC(C3)N4O)nc12)C(F)(F)F (stereo not shown) [Example 378]
IC50: 100 to 1000 nM

COMPOUND: Cc1cc(C(F)(F)F)c(Oc2ccc(-c3nccs3)c3oc(N4CC5CC(C4)N5)nc23)nn1
IC50: < 100 nM

COMPOUND: O=C(N1CCOCC1)C(F)(F)Oc1ccc(-c2nccs2)c2oc(N3CC4CC(C3)N4)nc12
IC50: < 100 nM
